System: HeLa
Assay: Induction of mitotic arrest in human HeLa cells assessed as monoastral spindle formation after 24 hrs
Assay type: functional, cell-based
pEC50: −log10 of the molar value. Where a SMILES comes first, the peptide text is derived from it. The star is where a group is joined. Trt = c1ccc(C(c2ccccc2)(c2ccccc2)*)cc1
pEC50 reference
measured-quantity: pEC50

[[record]]
molecule = "O=C(O)C(CSC(c1ccccc1)(c1ccccc1)c1ccccc1)/N=C/c1cccs1 (stereo unspecified)"
target_entity = "HeLa"
measured_quantity = "pEC50"
relation_symbol = "<"
recorded_number = 5.30

[[record]]
molecule = "CC(NC(=O)[C@@H](N)CSC(c1ccccc1)(c1ccccc1)c1ccccc1)C(=O)O (stereo partly specified)"
target_entity = "HeLa"
measured_quantity = "pEC50"
relation_symbol = "<"
recorded_number = 5.30

[[record]]
molecule = "N[C@@H](CSC(c1ccccc1)(c1ccccc1)c1ccc2c(c1)OCO2)C(=O)O"
target_entity = "HeLa"
measured_quantity = "pEC50"
relation_symbol = "="
recorded_number = 5.86

[[record]]
molecule = "N[C@@H](CSC(c1ccccc1)(c1ccccc1)c1ccc(O)cc1)C(=O)O"
target_entity = "HeLa"
measured_quantity = "pEC50"
relation_symbol = "<"
recorded_number = 5.30

[[record]]
molecule = "COC(=O)[C@@H](NC(=O)[C@@H](N)CSC(c1ccccc1)(c1ccccc1)c1ccccc1)C(C)C (H-Cys(Trt)-Val-OMe)"
target_entity = "HeLa"
measured_quantity = "pEC50"
relation_symbol = "="
recorded_number = 5.46

[[record]]
molecule = "CC(C)C(SC[C@H](N)C(=O)O)(c1ccccc1)c1ccccc1"
target_entity = "HeLa"
measured_quantity = "pEC50"
relation_symbol = "="
recorded_number = 5.97


---

Test system: HeLa
Assay: Induction of mitotic arrest in human HeLa cells assessed as monoastral spindle formation after 24 hrs
Format: functional, cell-based
Where a SMILES comes first, the peptide text is derived from it. The star is where a group is joined. Trt = c1ccc(C(c2ccccc2)(c2ccccc2)*)cc1
measured-quantity: EC50

[[record]]
compound = "COc1ccc(C(SC[C@H](N)C(=O)O)(c2ccccc2)c2ccccc2)cc1"
result = "0.2 µM"

[[record]]
compound = "N[C@@H](CSC(c1ccccc1)(c1ccccc1)c1ccccc1)C(=O)N[C@@H](CSC(c1ccccc1)(c1ccccc1)c1ccccc1)C(=O)O (H-Cys(Trt)-Cys(Trt)-OH)"
result = "> 5 µM"

[[record]]
compound = "CC(SC[C@H](N)C(=O)O)(c1ccccc1)c1ccccc1"
result = "> 5 µM"

[[record]]
compound = "COC(=O)[C@@H](N)CSC(c1ccccc1)(c1ccccc1)c1ccccc1"
result = "1.08 µM"

[[record]]
compound = "N[C@@H](CSC(c1ccccc1)(c1ccc(-c2ccccc2)cc1)c1ccc(-c2ccccc2)cc1)C(=O)O"
result = "> 5 µM"

[[record]]
compound = "Cc1ccc(C(SC[C@H](N)C(=O)O)(c2ccccc2)c2ccc(C)cc2)cc1"
result = "0.53 µM"

[[record]]
compound = "N[C@@H](CSC(c1ccccc1)(c1ccccc1)c1ccccc1)C(=O)OC(c1ccccc1)c1ccccc1"
result = "> 5 µM"

[[record]]
compound = "N[C@@H](CSC(c1ccccc1)(c1ccccc1)c1cccc2ccccc12)C(=O)O"
result = "> 5 µM"

[[record]]
compound = "CC(C)(SC(c1ccccc1)(c1ccccc1)c1ccccc1)C(N)C(=O)O (centres undefined)"
result = "> 5 µM"

[[record]]
compound = "N[C@@H](CSC1(c2ccccc2)c2ccccc2-c2ccccc21)C(=O)O"
result = "> 5 µM"

[[record]]
compound = "COC(=O)[C@H](CC(C)C)NC(=O)[C@@H](N)CSC(c1ccccc1)(c1ccccc1)c1ccccc1 (H-Cys(Trt)-Leu-OMe)"
result = "5 µM"

[[record]]
compound = "N[C@@H](CSC(c1ccccc1)(c1ccccc1)c1ccc(CO)cc1)C(=O)O"
result = "> 5 µM"

[[record]]
compound = "N[C@@H](COC(c1ccccc1)(c1ccccc1)c1ccccc1)C(=O)O"
result = "> 5 µM"

[[record]]
compound = "N[C@@H](CSC(c1ccccc1)(c1ccccc1)c1ccc(F)cc1)C(=O)O"
result = "1.55 µM"

[[record]]
compound = "CCCCC(SC[C@H](N)C(=O)O)(c1ccccc1)c1ccccc1"
result = "1.4 µM"

[[record]]
compound = "N[C@@H](CSC(c1ccccc1)(c1ccccc1)c1ccccc1)C(=O)NCC(=O)O"
result = "> 5 µM"

[[record]]
compound = "CC(=O)N[C@@H](CSC1(c2ccccc2)c2ccccc2-c2ccccc21)C(=O)O"
result = "> 5 µM"

[[record]]
compound = "Cc1ccc(C2(SC[C@H](N)C(=O)O)c3ccccc3-c3ccccc32)cc1"
result = "> 5 µM"

[[record]]
compound = "N[C@@H](CSC1(c2cccc3ccccc23)c2ccccc2-c2ccccc21)C(=O)O"
result = "> 5 µM"


Taken from ChEMBL document CHEMBL1143136.
